# targetDesc: human recombinant chemokine CCR8 receptor (Homo sapiens, UniProt P51685)
# Sequence (P51685 whole entry): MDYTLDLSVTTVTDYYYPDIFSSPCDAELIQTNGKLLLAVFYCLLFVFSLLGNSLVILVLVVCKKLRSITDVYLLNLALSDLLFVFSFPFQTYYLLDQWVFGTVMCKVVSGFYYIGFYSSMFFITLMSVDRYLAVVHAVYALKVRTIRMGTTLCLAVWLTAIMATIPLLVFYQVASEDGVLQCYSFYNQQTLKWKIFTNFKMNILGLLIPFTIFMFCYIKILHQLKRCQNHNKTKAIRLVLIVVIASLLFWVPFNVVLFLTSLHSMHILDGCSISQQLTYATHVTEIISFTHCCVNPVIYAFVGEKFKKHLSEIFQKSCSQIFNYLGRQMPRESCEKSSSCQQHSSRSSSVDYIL
# assayDetails: CCL1 SPA Binding Assay
# details: inhibition of 125I CCL1 binding to CCR8 membranes from transfected CHO-K1 cells
endpoint: IC50 (nM)

{"columns": ["smilesData", "unitSpec", "IC50"],
 "data": [
  ["O=C(O)Cc1ccccc1C(=O)N1CCC2(CCN(Cc3ccccc3Oc3ccccc3)CC2)CC1", "nM", 643],
  ["COc1ccccc1Oc1cccc(CN2CCC3(CC2)CCN(C(=O)c2ccc(OCC(=O)O)cc2)CC3)c1", "nM", 405],
  ["O=C(O)Cc1ccccc1C(=O)N1CCC2(CCN(Cc3cccc(Oc4ccccc4)c3)CC2)CC1", "nM", 144],
  ["COc1ccccc1Oc1ccccc1CN1CCC2(CC1)CCN(C(=O)c1cc(Cl)c(Cl)cc1C(=O)O)CC2", "nM", 81]
]}

P = COc1ccccc1Oc1ccccc1CN1CCC2(CC1)CCN(C(=O)c1ccccc1CC(=O)O)CC2
Q = COc1ccccc1Oc1ccccc1CN1CCC2(CC1)CCN(C(=O)c1ccccc1NC(=O)C(=O)O)CC2
Data request: In the pair P and Q , the larger recorded IC50 belongs to which? Respond with the label that goes with your answer.
Data returned: Q

###

Property: microsomal CLint at 2.5 μM; scope: individual compounds
# assayDetails: Human Microsomal Stability Assay
# Format: in vitro ADME
# details: human microsomes (Xenotech); human microsomes 1 mg protein/mL, compound 2.5 μM, NADPH 2 mM, pH 7.4, 37° C.; read-out: Intrinsic clearance
# Protocol: Human Microsomal Stability Assay Samples at four time-points (0, 5, 15 and 30 minutes) are withdrawn and the enzymatic reaction is terminated by protein precipitation with 1% acetic acid in acetonitrile. […] After centrifugation of the samples, the supernatants are pooled in sets of four before they are analysed by liquid chromatography with tandem mass spectrometry detection (LC/MS/MS) using multiple reaction monitoring (MRM). […]

{"columns": ["compound", "microsomal CLint at 2.5 μM"],
 "data": [
  ["O=C(O)Cc1ccccc1C(=O)N1CCC2(CCN(Cc3cccc(Oc4ccccc4)c3)CC2)CC1", "< 10 µL/min/mg"]
]}

Data request: Can you look up the measured microsomal CLint at 2.5 μM of COc1ccccc1Oc1ccccc1CN1CCC2(CC1)CCN(C(=O)c1ccccc1NC(=O)C(=O)O)CC2 for me?
Data returned: < 10 µL/min/mg

Data request: So what does the record say about microsomal CLint at 2.5 μM for O=C(O)Cc1ccccc1C(=O)N1CCC2(CCN(Cc3ccccc3Oc3ccccc3)CC2)CC1 ?
Data returned: < 10 µL/min/mg

Data request: Fill in the blank: the reported microsomal CLint at 2.5 μM of COc1ccccc1Oc1cccc(CN2CCC3(CC2)CCN(C(=O)c2ccccc2C(=O)O)CC3)c1 is ____.
Data returned: < 10 µL/min/mg

Data request: Entry COc1ccccc1Oc1cccc(CN2CCC3(CC2)CCN(C(=O)c2ccccc2CC(=O)O)CC3)c1 has what microsomal CLint at 2.5 μM?
Data returned: < 10 µL/min/mg

Data request: Bench note: what microsomal CLint at 2.5 μM did COc1ccccc1Oc1cccc(CN2CCC3(CC2)CCN(C(=O)c2ccccc2OCC(=O)O)CC3)c1 show?
Data returned: < 10 µL/min/mg

Data request: If you can, please state the reported microsomal CLint at 2.5 μM value of COc1ccccc1Oc1cccc(CN2CCC3(CC2)CCN(C(=O)c2ccc(Cl)cc2)CC3)c1 [Y, reference compound] .
Data returned: > 200 µL/min/mg

Data request: Can you share its microsomal CLint at 2.5 μM? I mean this compound: O=C(O)Cc1cc(Cl)ccc1C(=O)N1CCC2(CCN(Cc3ccccc3Oc3ccccc3)CC2)CC1
Data returned: < 10 µL/min/mg

Data request: Field request: microsomal CLint at 2.5 μM | item: COc1ccccc1Oc1ccccc1CN1CCC2(CC1)CCN(C(=O)c1ccccc1CC(=O)O)CC2
Data returned: < 10 µL/min/mg

Data request: Bench note: what microsomal CLint at 2.5 μM did COc1ccccc1Oc1ccccc1CN1CCC2(CC1)CCN(C(=O)c1ccc(Cl)cc1CC(=O)O)CC2 show?
Data returned: < 10 µL/min/mg

Data request: Reported microsomal CLint at 2.5 μM for COc1ccccc1Oc1cccc(CN2CCC3(CC2)CCN(C(=O)c2ccc(OCC(=O)O)cc2)CC3)c1 : what is it?
Data returned: < 10 µL/min/mg

Data request: Which microsomal CLint at 2.5 μM value belongs to COc1ccccc1Oc1ccccc1CN1CCC2(CC1)CCN(C(=O)c1cc(Cl)c(Cl)cc1C(=O)O)CC2 ?
Data returned: 16 µL/min/mg

###

# targetDesc: human recombinant chemokine CCR8 receptor (Homo sapiens, UniProt P51685)
# assayDetails: CCL1 SPA Binding Assay
# details: inhibition of 125I CCL1 binding to CCR8 membranes from transfected CHO-K1 cells
pIC50: −log10 of the molar value.
endpoint: pIC50

Recorded pIC50, per entry:
{"columns": ["compound", "readoutNumber"],
 "data": [
  ["O=C(O)Cc1cc(Cl)ccc1C(=O)N1CCC2(CCN(Cc3ccccc3Oc3ccccc3)CC2)CC1 [Example 2]", 6.71],
  ["CC(C)COc1ccccc1CN1CCC2(CC1)CCN(C(=O)c1ccccc1CC(=O)O)CC2 [A, reference compound]", 5.97],
  ["CC(C)COc1ccccc1CN1CCC2(CC1)CCN(C(=O)c1ccccc1C(=O)O)CC2 [B, reference compound]", 5.86]
]}

I = COc1ccccc1Oc1cccc(CN2CCC3(CC2)CCN(C(=O)c2ccccc2C(=O)O)CC3)c1 [Example 9]
II = COc1ccccc1Oc1cccc(CN2CCC3(CC2)CCN(C(=O)c2ccccc2OCC(=O)O)CC3)c1 [Example 11]
III = COc1ccccc1Oc1cccc(CN2CCC3(CC2)CCN(C(=O)c2ccccc2CC(=O)O)CC3)c1 [Example 8]
IV = COc1ccccc1Oc1ccccc1CN1CCC2(CC1)CCN(C(=O)c1ccc(Cl)cc1CC(=O)O)CC2 [Example 5]
Data request: Ranking field: pIC50; order: falling. Form field (ranking): labels in requested order.
Data returned: IV, III, I, II

Data credit: patent US20090118318A1
